- Assay System: Replicase polyprotein 1ab (Severe acute respiratory syndrome-related coronavirus, UniProt P0C6X7)
Measured Ki values are reported for all entries that follow.
// note: answer is a bare numeric in µM

As a guide, the following entries are already answered.
• CC(=O)N[C@@H](CC(N)=O)C(=O)N[C@@H](CO)C(=O)N[C@@H](Cc1ccccc1)C(=O)N[C@@H](CO)C(=O)N[C@@H](CCC(N)=O)C(=O)O = 72
• CC(=O)N[C@@H](CC(N)=O)C(=O)N[C@@H](CO)C(=O)N[C@H](C(=O)N[C@@H](CO)C(=O)N[C@H](C=O)CCC(N)=O)[C@@H](C)O = 40
• CC(=O)N[C@@H](CC(=O)O)C(=O)N[C@@H](CO)C(=O)N[C@@H](Cc1ccccc1)C(=O)N[C@@H](CC(=O)O)C(=O)N[C@@H](CCC(N)=O)C(=O)O = 41

Now for another entry.
*Q* Look up Ki: CC(=O)N[C@@H](CCC(=O)O)C(=O)N[C@@H](CO)C(=O)N[C@H](C(=O)N[C@@H](CC(C)C)C(=O)N[C@H](C=O)CCC(N)=O)[C@@H](C)O
*A* 8
